Data origin: ChEMBL document CHEMBL4689842

- Test system: U2OS
- protocol-summary: Multiplex assay against U2OS
- Type: toxicity, cell-based
- condition-label: human, 24 h, 10 µM, compound concentration 10 uM, replicate 1
Quick list: Population Normal (%) per entry.
# value in %; strip the unit string

>  <molecule>
Cc1nc(Nc2n[nH]c3c2CN(C(=O)N[C@H](CN(C)C)c2ccccc2)C3(C)C)c2sccc2n1

>  <study-target>
U2OS

>  <Population Normal (%)>
88

$$$$

Ask: // returns reported Population Normal (%) for input OC1(c2ccc(Cl)cc2)CCN(Cc2c[nH]c3ccccc23)CC1
Result: 90

Ask: Please answer likewise for CN1CCCC(n2nc(Cc3ccc(Cl)cc3)c3ccccc3c2=O)CC1.Cl (stereo not given) [AZELASTINE HYDROCHLORIDE]
Result: 89

Ask: Please answer likewise for COc1cc(-n2cnc3cc(-c4ccc(Cl)cc4)sc3c2=O)ccc1OCCN1CCCC1
Result: 88

Ask: Please answer likewise for c1cn2cc(-c3ccc4cn[nH]c4c3)nc(Nc3ccc(N4CCOCC4)cc3)c2n1
Result: 76

----------
- System: HEK-293T
- protocol-summary: Multiplex assay against HEK293T
- Format: toxicity, cell-based
- condition-label: human, 12 h, 1 µM, compound concentration 1 uM, replicate 1
Quick list: Population Pyknosed Nuclei (%) per entry.
# value in %; strip the unit string

Sample records with Population Pyknosed Nuclei (%):
>  <molecule>
CN1CCCC(n2nc(Cc3ccc(Cl)cc3)c3ccccc3c2=O)CC1.Cl (stereo not drawn) [AZELASTINE HYDROCHLORIDE]

>  <Population Pyknosed Nuclei (%)>
50

$$$$
>  <molecule>
CN1CCN(c2ccc(OC(F)(F)F)c(Nc3ncc4c(n3)-c3c(c(C(N)=O)nn3CCO)CC4)c2)CC1 [ONVANSERTIB]

>  <Population Pyknosed Nuclei (%)>
50

$$$$

Now take the following molecule into account.
Ask: // returns reported Population Pyknosed Nuclei (%) for input c1cn2cc(-c3ccc4cn[nH]c4c3)nc(Nc3ccc(N4CCOCC4)cc3)c2n1 [ENTOSPLETINIB]
Result: 50

----------
- Tested on: Fibroblast
- protocol-summary: Multiplex assay against human fibroblast
- Assay type: toxicity, cell-based
- condition-label: 12 h, 10 µM, compound concentration 10 uM, replicate 1
reported-property: Population Tubulin-Different-Phenotype (%)
# value in %; strip the unit string

>  <compound>
Cc1nc(-c2ccc(-c3ccc(C(=O)N4CCc5cc6c(cc54)C4(CCN(C)CC4)CO6)cc3)c(C)c2)no1 [SB-224289]

>  <readout-unit>
%

>  <value-measured>
89

$$$$
>  <compound>
C=CC(=O)Nc1cccc(C(=O)Nc2ccc(Nc3cc(-c4[nH]c(SC)nc4C)ccn3)cc2)c1

>  <readout-unit>
%

>  <value-measured>
29

$$$$
>  <compound>
OC1(c2ccc(Cl)cc2)CCN(Cc2c[nH]c3ccccc23)CC1

>  <readout-unit>
%

>  <value-measured>
90

$$$$
>  <compound>
CN1CCN(CCOc2cc(OC3CCOCC3)c3c(Nc4c(Cl)ccc5c4OCO5)ncnc3c2)CC1 [SARACATINIB]

>  <readout-unit>
%

>  <value-measured>
91

$$$$
>  <compound>
CN(C)CC#Cc1ccc(OCCCc2sc(N3CCc4cccc(C(=O)Nc5nc6ccccc6s5)c4C3)nc2C(=O)O)c(F)c1 [A-1155463]

>  <readout-unit>
%

>  <value-measured>
74

$$$$

Ask: // returns reported Population Tubulin-Different-Phenotype (%) for input O=C1NCN(c2ccccc2)C12CCN(CCCOc1ccc(F)cc1)CC2 [SPIRAMIDE]
Result: 82

Ask: Please answer likewise for CN(C)C(=O)/C(C#N)=C/c1ccc(-c2nc3cnc4[nH]ccc4c3n2C2CCCCC2)o1
Result: 65
